# Tested on: Inhibin beta A chain (activin A)
# experiment.description: INHBA (activin A) binders on microarrays, primary screen, biochemical, small-molecule microarray, 635 nm fluorescence scan (AID 1107);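 note: mouse activin A protein probed at 4.33 µg/mL on printed slides; score merges bound-protein fluorescence near 667 nm with spot signal-to-noise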
# condition.details: small-molecule microarray binding, higher = more signal
composite z-score of 0.7 or higher: y. Under 0.7: n.

query.smiles | qualitative.label
CCOC(=O)C[C@H]1[C@H](OC(=O)c2cc3ccccc3oc2=O)[C@@H](NC(=O)c2ccc(-c3ccccc3)cc2)c2cc(OCCCO)ccc2N1C(=O)c1ccc2ccccc2n1 | n
CN(C)C(=O)[C@@]1(CCS(=O)(=O)c2ccccc2)N=C(c2ccc(OCCCO)cc2)O[C@H]1c1ccccc1 | n
COc1ccc(CCN2C(=O)[C@@]3(Cc4ccccc42)c2ccccc2C(=O)N(Cc2ccccc2OC)[C@H]3c2ccc(CO)cc2)cc1 | n
C=CCOC(=O)[C@H]1[C@@H]2C(=O)O[C@@H](c3ccccc3)[C@@H](c3ccccc3)N2[C@@H](c2ccc(OCCOC(=O)[C@@H]3C[C@@H]4C(=O)N[C@@H](CCCCNC(C)=O)C(=O)N4[C@@H]3c3ccc(O)cc3)cc2)[C@]12C(=O)Nc1ccc(I)cc12 | y

---

# experiment.description: basal S. cerevisiae growth modulation, no modifier, primary screen, OD600, strain BY4716, 24 h, basal condition (AID 1173)
# condition.details: OD600, 24 h, higher = more signal, called active from +8 up or from −8 down
Using z-score as the sorting value, the categories are Low = under -2, Mid = from -2 up to 0.5, High = 0.5 and over

molecule | qualitative.label
C=CC1c2cc(O)c(OC)cc2CCN1Cc1cc2c(cc1Br)OCO2 (configuration not stated) | Low
COc1ccc([Si](C)(C)[C@H]2[C@H](CCO)O[C@@]3(C(=O)N(Cc4cccc(N5C(=O)COc6ccccc65)c4)c4ccccc43)[C@@H]2C)cc1 | Mid
COCCOC(=O)N1C(=O)[C@@]2(c3cc(C#CCCO)ccc31)[C@H](c1ccccc1OCCO)N1[C@H](c3ccccc3)[C@H](c3ccccc3)OC(=O)[C@H]1[C@@H]2C(=O)Nc1nc2ccccc2s1 | High
[N-]=[N+]=Nc1ccccc1[C@H]1OC(c2ccc(OCCCO)cc2)=N[C@@]1(CCS(=O)(=O)c1ccccc1)C(=O)NCCN1CCOCC1 | Mid
CN1C(=O)C2C=CC(C(O)COCc3ccccc3)N(N(c3ccccc3)c3ccccc3)C2C1=O (configuration not stated) | Low
COc1ccc([Si](C)(C)[C@@H]2[C@@H](CC(=O)N3Cc4ccccc4C[C@H]3CO)O[C@]3(C(=O)N(Cc4cccc(N5C(=O)c6cccc7cccc5c67)c4)c4ccccc43)[C@H]2C)cc1 | High
CC(C)C[C@@H]1NC(=O)[C@@H]2C[C@H](C(=O)NCCCCN(C)C)[C@H](c3cccc(OCCO)c3)N2C1=O | Mid
CC(C)(C)OC(=O)CC[C@]1(C(=O)NCC(O)CO)N=C(c2ccc(OCCCO)cc2)O[C@H]1c1ccccc1 (some centres not stated) | Mid
Cc1cc(C)c(C(O)C2C=CC3C(=O)N(c4ccccc4)C(=O)C3N2Nc2ccc(C(C)C)cc2)c(C)c1 (configuration not stated) | High
O=C(CS)NCCCCCCNC(=O)[C@H]1C[C@H]2C(=O)N[C@@H](Cc3ccccc3)C(=O)N2[C@H]1c1ccc(O)cc1 | High
CC1=C([C@H](O)CCc2ccccc2)[C@H](CO)[C@@H]2C(=O)N(C)C(=O)[C@@H]2C1 | Low
CCC(CC)C(O)C1C=CC2C(=O)N(c3ccccc3)C(=O)C2N1Nc1ccc(C(C)C)cc1 (configuration not stated) | Mid

---

# System: Wnt5a (protein binding on small-molecule microarray)
# experiment.description: Wnt5a binders on small-molecule microarray, primary screen, biophysical, 635/667 nm fluorescence (AID 1142);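 note: fluorescence read at 667 nm with signal to noise per printed feature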
# condition.details: 635 nm fluorescence, higher = more signal
Would you mind labelling by composite z-score? At or over 0.1 is t, under is f.

compound | qualitative.label
CC(C)C[C@@H]1NC(=O)[C@@H]2C[C@H](C(=O)NCCCCN(C)C)[C@H](c3cccc(OCCO)c3)N2C1=O | f
COC(=O)[C@@]1(Cc2ccc(OC)cc2)[C@H]2c3cc(C(=O)N(C)C)n(CCO)c3C[C@H]2CN1C(=O)c1ccccc1 | t
C=CCC(OC(C)=O)[C@@H]1[C@@H](N(Cc2cc3ccccc3o2)C(=O)c2ccc(C)cc2)c2cc(OCCCO)ccc2N1C(=O)Cc1ccc(OC)cc1 (some centres not stated) | t
COCCOC(=O)N1C(=O)[C@@]2(c3cc(C#CC4=CCCCC4)ccc31)[C@H](c1ccc(O)cc1)N1[C@H](c3ccccc3)[C@H](c3ccccc3)OC(=O)[C@H]1[C@@H]2C(=O)N1CCN(c2ncccn2)CC1 | f
[N-]=[N+]=Nc1ccccc1[C@@H]1OC(c2ccc(OCCCO)cc2)=N[C@]1(Cc1ccccc1)C(=O)NCC(O)CO (some centres not stated) | t
COc1ccc(-c2cc3c(c(CCc4ccccc4)n2)[Si](C(C)C)(C(C)C)OC3)cn1 | f

Entry source: PubChem BioAssay
